Assay: Clearance in dog plasma
Format: ADME, cell-free, Canis lupus familiaris
quantity-kind: clearance (mL/min/kg)
Express your answer in mL/min/kg, writing the number without its unit.

Entry O=C(O)CCC(=O)N[C@@H](CC(=O)O)Cc1ccc(-c2cccc(Cl)c2)cc1 : reported clearance = ?
29

---

Experiment: Apparent half life in dog
Format: ADME, Canis lupus familiaris
Conditions: in vivo, read-out: t1/2(app) (converted)
quantity-kind: half-life
Could you write the number and then its unit?

Entry O=C(O)CCC(=O)N[C@@H](CC(=O)O)Cc1ccc(-c2cccc(Cl)c2)cc1 : reported half-life = ?
48 min

---

Test: Clearance in monkey plasma
Type: ADME, cell-free, Macaca mulatta
Details: rhesus monkey
quantity-kind: clearance
Could you write the number and then its unit?

Entry O=C(O)CCC(=O)N[C@@H](CC(=O)O)Cc1ccc(-c2cccc(Cl)c2)cc1 : reported clearance = ?
3 mL/min/kg

---

Experiment: Oral bioavailability in Sprague-Dawley rat at 3 mg/kg
Type: ADME, organism-based
Details: in vivo
quantity-kind: bioavailability (%)
Express your answer in %, writing the number without its unit.

Entry O=C(O)CCC(=O)N[C@@H](CC(=O)O)Cc1ccc(-c2ccccc2)cc1 : reported bioavailability = ?
66

---

Assay: AUC (0 to 7 hrs) in Sprague-Dawley rat at 3 mg/kg, po measured upto 24 hrs by HPLC-MS/MS analysis
Type: ADME, organism-based
Parameters: time < 7 hr, dose 3 mg/kg, route oral
Conditions: in vivo
quantity-kind: AUC(0-t) at 7 h

Entry CCOC(=O)C[C@@H](Cc1ccc(-c2cccc(Cl)c2)cc1)NC(=O)CCC(=O)O : reported AUC(0-t) at 7 h = ?
10.1 µM·h

Entry CCOC(=O)C[C@@H](Cc1ccc(-c2cc(Cl)ccc2OC)cc1)NC(=O)CCC(=O)O : reported AUC(0-t) at 7 h = ?
5.63 µM·h

---

Test: Clearance in Sprague-Dawley rat at 1 mg/kg, iv
Format: ADME, organism-based
Conditions: in vivo
quantity-kind: clearance (mL/min/kg)
Express your answer in mL/min/kg, writing the number without its unit.

Entry O=C(O)CCC(=O)N[C@@H](CC(=O)O)Cc1ccc(-c2ccccc2)cc1 : reported clearance = ?
11

---

Assay: Oral bioavailability in Sprague-Dawley rat at 3 mg/kg measured upto 24 hrs by HPLC-MS/MS analysis
Format: ADME, organism-based
Details: in vivo
quantity-kind: bioavailability (%)
Express your answer in %, writing the number without its unit.

Entry CCOC(=O)C[C@@H](Cc1ccc(-c2cc(Cl)ccc2OC)cc1)NC(=O)CCC(=O)O : reported bioavailability = ?
25

Entry CCOC(=O)C[C@@H](Cc1ccc(-c2cccc(Cl)c2)cc1)NC(=O)CCC(=O)O : reported bioavailability = ?
42

---

Record form. Attribute: half-life. Fill in for each entry.
Assay: Terminal half life in Sprague-Dawley rat at 1 mg/kg, iv measured upto 24 hrs by HPLC-MS/MS analysis
Format: ADME, organism-based
Conditions: in vivo, read-out: beta t1/2 (converted)
Express your answer in min, writing the number without its unit.

Entry COc1ccc(Cl)cc1-c1ccc(C[C@H](CC(=O)O)NC(=O)CCC(=O)O)cc1 : reported half-life = ?
60

Entry O=C(O)CCC(=O)N[C@@H](CC(=O)O)Cc1ccc(-c2cccc(Cl)c2)cc1 : reported half-life = ?
48

---

Experiment: Apparent half life in monkey
Type: ADME, Macaca mulatta
Conditions: rhesus monkey, in vivo; read-out: t1/2(app) (converted)
quantity-kind: half-life (h)
Express your answer in h, writing the number without its unit.

Entry O=C(O)CCC(=O)N[C@@H](CC(=O)O)Cc1ccc(-c2cccc(Cl)c2)cc1 : reported half-life = ?
4
